Molecular target: isolated recombinant JAK2 kinase domain (Homo sapiens (Human), UniProt O60674)
Sequence (O60674 849-1124): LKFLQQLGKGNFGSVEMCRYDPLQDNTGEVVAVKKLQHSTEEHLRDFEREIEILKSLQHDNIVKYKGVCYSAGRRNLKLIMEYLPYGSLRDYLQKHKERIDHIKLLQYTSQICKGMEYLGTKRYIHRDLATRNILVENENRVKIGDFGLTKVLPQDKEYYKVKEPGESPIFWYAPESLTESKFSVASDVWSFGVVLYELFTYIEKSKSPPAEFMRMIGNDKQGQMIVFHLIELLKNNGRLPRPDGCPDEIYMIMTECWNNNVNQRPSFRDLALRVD
Assay: JAK2 enzyme assay (Caliper LabChip, peptide phosphorylation)
Conditions: 25 μM ATP
Counter-ions that a name gives are not always drawn.
observable: Ki (nM)

Record excerpt, results attached:
{"compound": "CN(CCC#N)C1CCN(c2nc(-c3cc(Cl)ccc3OC(F)F)c(NC(=O)c3cnn4cccnc34)s2)CC1 [Example 189]", "test.system": "isolated recombinant JAK2 kinase domain (Homo sapiens (Human), UniProt O60674)", "unit.info": "nM", "Ki": 1.61}
{"compound": "CCN(Cc1ccnc(C)c1)C(=O)Cn1cc(NC(=O)c2cnn3cccnc23)c(-c2cc(Cl)ccc2OC(F)F)n1 [Example 299]", "test.system": "isolated recombinant JAK2 kinase domain (Homo sapiens (Human), UniProt O60674)", "unit.info": "nM", "Ki": 0.39}
{"compound": "CN(CCc1ccc(C(F)(F)F)cc1)C1CCN(C(=O)Cn2cc(NC(=O)c3cnn4cccnc34)c(-c3cc(Cl)ccc3OC(F)F)n2)CC1 [Example 97]", "test.system": "isolated recombinant JAK2 kinase domain (Homo sapiens (Human), UniProt O60674)", "unit.info": "nM", "Ki": 1.97}
{"compound": "COC(=O)CNC1CCN(C(=O)Cn2cc(NC(=O)c3cnn4cccnc34)c(-c3cc(Cl)ccc3OC(F)F)n2)CC1 [Example 329, formate]", "test.system": "isolated recombinant JAK2 kinase domain (Homo sapiens (Human), UniProt O60674)", "unit.info": "nM", "Ki": 0.76}

I. CSCCN1CCN(C(=O)Cn2cc(NC(=O)c3cnn4cccnc34)c(-c3cc(Cl)ccc3OC(F)F)n2)CC1 [Example 372]
II. NCCn1cc(NC(=O)c2c(N)nn3cccnc23)c(-c2cc(Cl)ccc2OC(F)F)n1 [Example 295]
III. O=C(Nc1cn(CC(=O)N2CCN(CCO)CC2)nc1-c1cc(Cl)ccc1OC(F)F)c1cnn2cccnc12 [Example 228]
[in] List by increasing Ki. Answer format: the labels, ordered as requested.
[out] II, I, III

====

Biological target: isolated recombinant JAK2 kinase domain (Homo sapiens (Human))
Experiment: JAK2 enzyme assay (Caliper LabChip, peptide phosphorylation)
Settings: 25 μM ATP
observable: Ki (nM)

{"compound": "CN(C)C(=O)CCCN(C)C1CCN(C(=O)Cn2cc(NC(=O)c3cnn4cccnc34)c(-c3cc(Cl)ccc3OC(F)F)n2)CC1", "test.system": "isolated recombinant JAK2 kinase domain (Homo sapiens (Human))", "unit.info": "nM", "Ki": 1.91}
{"compound": "CCOC(=O)CNC1CCN(C(=O)Cn2cc(NC(=O)c3cnn4cccnc34)c(-c3cc(Cl)ccc3OC(F)F)n2)CC1", "test.system": "isolated recombinant JAK2 kinase domain (Homo sapiens (Human))", "unit.info": "nM", "Ki": 1.6}
{"compound": "O=C(Nc1cn(CC(=O)N2CCCCC2)nc1-c1cc(Cl)ccc1OC(F)F)c1cnn2cccnc12", "test.system": "isolated recombinant JAK2 kinase domain (Homo sapiens (Human))", "unit.info": "nM", "Ki": 0.55}
{"compound": "O=C(Nc1cn(CC(=O)N2C[C@H]3CN(CCCOC(=O)N4CCOCC4)C[C@H]3C2)nc1-c1cc(Cl)ccc1OC(F)F)c1cnn2cccnc12", "test.system": "isolated recombinant JAK2 kinase domain (Homo sapiens (Human))", "unit.info": "nM", "Ki": 1.06}
{"compound": "CN(CCCC#N)C1CCN(C(=O)Cn2cc(NC(=O)c3cnn4cccnc34)c(-c3cc(Cl)ccc3OC(F)F)n2)CC1", "test.system": "isolated recombinant JAK2 kinase domain (Homo sapiens (Human))", "unit.info": "nM", "Ki": 1.41}
{"compound": "O=C(Nc1cn(CC(=O)N2CCN(CCN3CCOCC3)CC2)nc1-c1cc(Cl)ccc1OC(F)F)c1cnn2cccnc12", "test.system": "isolated recombinant JAK2 kinase domain (Homo sapiens (Human))", "unit.info": "nM", "Ki": 0.9}

a. CN(CC(F)(F)c1ccccc1)C1CCN(C(=O)Cn2cc(NC(=O)c3cnn4cccnc34)c(-c3cc(Cl)ccc3OC(F)F)n2)CC1
b. CN(C)CCOC(=O)C1(C)CCN(C(=O)Cn2cc(NC(=O)c3cnn4cccnc34)c(-c3cc(Cl)ccc3OC(F)F)n2)CC1
c. CCNC(=O)CCCN1CCC(n2cc(NC(=O)c3cnn4cccnc34)c(-c3cc(Cl)ccc3OC(F)F)n2)CC1
d. CN1CC[C@H]2[C@@H](CCN2C(=O)Cn2cc(NC(=O)c3cnn4cccnc34)c(-c3cc(Cl)ccc3OC(F)F)n2)C1
e. CN(C)C1CCN(C(=O)Cn2cc(NC(=O)c3cnn4cccnc34)c(-c3cc(Cl)ccc3OC(F)F)n2)C1 (stereo not shown)
[in] List by increasing Ki. Answer format: the labels, ordered as requested.
[out] c, e, a, b, d
(c: 0.19 nM, e: 0.69 nM, a: 1.1 nM, b: 1.79 nM, d: 2.68 nM)

====

System: JAK1-dependent STAT6 phosphorylation downstream of IL-13 stimulation in BEAS-2B human bronchial epithelial cells
Assay: JAK1 pathway assay in BEAS-2B cells (IL-13-pSTAT6, MSD)
Assay type: cell-based
Details: read-out: IL13-pSTAT6 EC50 (uM)_BEAS-2B
Protocol: JAK1 Pathway Assay in Cell Lines was Carried Out as Follows: Inhibitor potency (EC50) was determined in cell-based assays designed to measure JAK1 dependent STAT phosphorylation. […] Test compounds were serially diluted 1:2 in DMSO and then diluted 1:50 in medium just before use. […] Then, cells were stimulated with human recombinant cytokine at their respective EC90 concentrations, as previously determined for each individual lot. […]
Below: a set of entries, each annotated with reported EC50.
Dear colleague, please return just the value in µM, with no unit written.

Record excerpt, results attached:
{"molecule": "CN(Cc1ccccc1)C1CCN(C(=O)Cn2cc(NC(=O)c3cnn4cccnc34)c(-c3cc(Cl)ccc3OC(F)F)n2)CC1 [Example 98]", "observable": "EC50", "unit.info": "µM", "observed.result": 0.0381}
{"molecule": "O=C(Nc1cn(CC(=O)N2CCC(N3CCCOCC3)CC2)nc1-c1cc(Cl)ccc1OC(F)F)c1cnn2cccnc12 [Example 441]", "observable": "EC50", "unit.info": "µM", "observed.result": 0.0084}
{"molecule": "CNC(=O)CCCN1CCC(n2cc(NC(=O)c3c(N)nn4cccnc34)c(-c3cc(Cl)ccc3OC(F)F)n2)CC1 [Example 149]", "observable": "EC50", "unit.info": "µM", "observed.result": 0.0198}
{"molecule": "O=C(Nc1cn(CC(=O)N2CCC(N3CCNCC3=O)CC2)nc1-c1cc(Cl)ccc1OC(F)F)c1cnn2cccnc12 [Example 445]", "observable": "EC50", "unit.info": "µM", "observed.result": 0.3}
{"molecule": "COC(=O)CNCCn1cc(NC(=O)c2cnn3cccnc23)c(-c2cc(Cl)ccc2OC(F)F)n1 [Example 386]", "observable": "EC50", "unit.info": "µM", "observed.result": 0.0297}
{"molecule": "CN1CCC(=CCn2cc(NC(=O)c3cnn4cccnc34)c(-c3cc(Cl)ccc3OC(F)F)n2)CC1 [Example 415]", "observable": "EC50", "unit.info": "µM", "observed.result": 0.046}

Kindly review the next molecule as well.
[in] Suppose we examine the molecule CN(C(=O)Cn1cc(NC(=O)c2cnn3cccnc23)c(-c2cc(Cl)ccc2OC(F)F)n1)C1(CO)CC1 [Example 293] ; what EC50 value has been reported?
[out] 0.0081

====

Target: isolated recombinant JAK2 kinase domain (Homo sapiens (Human))
Test: JAK2 enzyme assay (Caliper LabChip, peptide phosphorylation)
Conditions: 25 μM ATP
observable: Ki (nM)

{"chemical.smiles": "O=C(Nc1cn(CCN2CCNCC2=O)nc1-c1cc(Cl)ccc1OC(F)F)c1cnn2cccnc12", "unit.info": "nM", "Ki": 1.37}

A. CN(CCCC(N)=O)C1CCN(c2nc(-c3cc(Cl)ccc3OC(F)F)c(NC(=O)c3cnn4cccnc34)s2)CC1
B. Nc1nn2cccnc2c1C(=O)Nc1cn(CC(=O)N2CCOCC2)nc1-c1cc(Cl)ccc1OC(F)F
C. N#CC1(c2ccccc2)CCN(C(=O)Cn2cc(NC(=O)c3c(N)nn4cccnc34)c(-c3cc(Cl)ccc3OC(F)F)n2)CC1
[in] Thanks in advance: please rank these 3 entries by Ki, highest to lowest. Answer format: the labels, ordered as requested.
[out] A, C, B

====

Target: isolated recombinant JAK2 kinase domain (Homo sapiens (Human), UniProt O60674)
Assay: JAK2 enzyme assay (Caliper LabChip, peptide phosphorylation)
Conditions: 25 μM ATP
pKi: −log10 of the molar value.
observable: pKi

Record excerpt, results attached:
{"chemical.smiles": "CN(CCOc1ccc(Cl)cc1)C1CCN(C(=O)Cn2cc(NC(=O)c3cnn4cccnc34)c(-c3cc(Cl)ccc3OC(F)F)n2)CC1", "pKi": 8.60}
{"chemical.smiles": "CN(C)CC1(c2ccccc2)CCN(C(=O)Cn2cc(NC(=O)c3cnn4cccnc34)c(-c3cc(Cl)ccc3OC(F)F)n2)CC1", "pKi": 9.06}
{"chemical.smiles": "CCOC(=O)CCCN1CCC(n2cc(NC(=O)c3c(N)nn4cccnc34)c(-c3cc(Cl)ccc3OC(F)F)n2)CC1", "pKi": 9.89}
{"chemical.smiles": "CNC1CCN(C(=O)Cn2cc(NC(=O)c3cnn4cccnc34)c(-c3cc(Cl)ccc3OC(F)F)n2)CC1", "pKi": 8.80}

1. O=C(Nc1cn(CCNCc2ccccc2O)nc1-c1cc(Cl)ccc1OC(F)F)c1cnn2cccnc12
2. CN(C)C(=O)CN1CCC(CN2CCN(C(=O)Cn3cc(NC(=O)c4cnn5cccnc45)c(-c4cc(Cl)ccc4OC(F)F)n3)CC2)CC1
3. CC(=O)NCCCN1CCC(n2cc(NC(=O)c3c(N)nn4cccnc34)c(-c3cc(Cl)ccc3OC(F)F)n2)CC1
[in] Thanks in advance: please rank these 3 entries by pKi, highest to lowest. Answer format: the labels, ordered as requested.
[out] 3, 1, 2
